Biological target: UniProt Q9NRM0
Sequence (Q9NRM0 other isoform, or with tags, fused parts or gaps): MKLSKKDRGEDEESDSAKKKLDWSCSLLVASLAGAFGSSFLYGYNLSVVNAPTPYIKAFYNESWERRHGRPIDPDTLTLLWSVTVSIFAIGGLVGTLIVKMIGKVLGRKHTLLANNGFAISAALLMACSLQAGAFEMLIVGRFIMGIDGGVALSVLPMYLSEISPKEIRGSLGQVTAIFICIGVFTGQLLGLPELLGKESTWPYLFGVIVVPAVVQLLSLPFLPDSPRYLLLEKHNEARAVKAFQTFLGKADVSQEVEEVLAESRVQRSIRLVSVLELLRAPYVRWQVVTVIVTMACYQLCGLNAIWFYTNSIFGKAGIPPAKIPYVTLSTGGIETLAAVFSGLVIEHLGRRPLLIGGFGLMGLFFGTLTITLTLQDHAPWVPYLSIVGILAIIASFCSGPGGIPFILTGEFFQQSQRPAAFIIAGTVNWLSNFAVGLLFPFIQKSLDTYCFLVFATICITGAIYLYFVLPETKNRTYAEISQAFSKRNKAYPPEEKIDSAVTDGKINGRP
Experiment: Evaluation of human GLUT9 inhibitory activity ([14C] uric acid uptake in human GLUT9 expressing HEK293T cells transduced with Uricase/Hyper)
Assay type: cell-based
Details: final 300 μM uric acid, 6 min, human GLUT9 stably expressing HEK293T cells, read-out: humans GLUT9 inhibitory activity (IC50 value (μM))
observedProperty: IC50 (µM)

compoundString | observedProperty | u | numericReadout
COCCCc1cnc(-c2ccc(OC)c(F)c2)c(-c2ccc(C(=O)O)cc2)c1 | IC50 | µM | 0.101
COCCCCc1cnc(-c2cc(F)c(OC)c(F)c2)c(-c2ccc(C(=O)O)c(Cl)c2)c1 | IC50 | µM | 0.155
CCCCc1cnc(-c2ccc(OC)cc2)c(-c2ccc(C(=O)O)c(Cl)c2)n1 | IC50 | µM | 0.181
COCCCCc1cnc(-c2cc(F)c(OC)c(F)c2)c(-c2ccc(CCC(=O)O)cc2)c1 | IC50 | µM | 0.0519
CCCCc1cnc(-c2ccc(F)cc2)c(-c2ccc(C(=O)O)cc2)n1 | IC50 | µM | 1.78
COCCCc1cnc(-c2cc(F)c(OC)c(F)c2)c(-c2ccc(C(=O)O)c(C)c2)c1 | IC50 | µM | 0.0497
COCCCc1cnc(-c2ccc(OC)cc2)c(-c2ccc(C(=O)O)c(Cl)c2)c1 | IC50 | µM | 0.539
COc1ccc(-c2ncc(CCC3CCCCC3)cc2-c2ccc(C(=O)O)cc2)cc1 | IC50 | µM | 6.5
CCCCc1cnc(-c2ccc(C(C)C)cc2)c(-c2ccc(C(=O)O)cc2)n1 | IC50 | µM | 0.928
COc1ccc(-c2ncc(C3CCCC3)cc2-c2ccc(C(=O)O)cc2)cc1 | IC50 | µM | 0.132
COCCOCCCc1cnc(-c2ccc(OC)cc2)c(-c2ccc(C(=O)O)cc2)c1 | IC50 | µM | 0.501
CCCOCc1cnc(-c2cc(F)c(OC)c(F)c2)c(-c2ccc(C(=O)O)c(C)c2)c1 | IC50 | µM | 0.0868
CCOCCc1cnc(-c2ccc(OC)cc2)c(-c2ccc(C(=O)O)c(C)c2)c1 | IC50 | µM | 0.0917
CCCCc1cnc(-c2ccc(C(F)(F)F)c(OC)c2)c(-c2ccc(C(=O)O)cc2)n1 | IC50 | µM | 0.992
COc1c(F)cc(-c2ncc(CC(C)C)nc2-c2ccc(CCC(=O)O)cc2)cc1F | IC50 | µM | 0.102

----------
Target: UniProt Q9NRM0
Experiment: Evaluation of human GLUT9 inhibitory activity ([14C] uric acid uptake in human GLUT9 expressing HEK293T cells transduced with Uricase/Hyper)
Assay type: cell-based
Details: final 300 μM uric acid, 6 min, human GLUT9 stably expressing HEK293T cells, read-out: humans GLUT9 inhibitory activity (IC50 value (μM))
observedProperty: IC50 (µM)

compound | observedProperty | numericReadout
CCCCc1cnc(-c2ccc(OC)cc2)c(-c2cc(F)c(C(=O)O)c(F)c2)n1 [Example 69] | IC50 | 0.856
COc1c(F)cc(-c2ncc(CC(C)C)nc2-c2ccc(C(=O)O)c(C)c2)cc1F [Example 149] | IC50 | 0.0574
COCCCc1cnc(-c2cc(F)c(OC)c(F)c2)c(-c2ccc(C(=O)O)c(C)c2)n1 [Example 109] | IC50 | 0.0799
COCCCc1cnc(-c2cc(F)c(OC)c(F)c2)c(-c2ccc(C(=O)O)c(F)c2)n1 [Example 112] | IC50 | 0.561
COCCCCc1cnc(-c2cc(F)c(OC)c(F)c2)c(-c2ccc(C(=O)O)c(C)c2)c1 [Example 130] | IC50 | 0.0521
CCCCc1cnc(-c2ccc(OC)cc2)c(-c2ccc(CC(=O)O)c(F)c2)n1 [Example 72] | IC50 | 0.526
CCCCc1cnc(-c2cc(F)c(OC)c(F)c2)c(-c2ccc(C(=O)O)c(C)c2)n1 [Example 152] | IC50 | 0.059
CCCCc1cnc(-c2ccc(OC)cc2)c(-c2cc(C)c(C(=O)O)c(C)c2)n1 [Example 110] | IC50 | 0.265
CCCCc1cnc(-c2ccc(C#N)cc2)c(-c2ccc(C(=O)O)cc2)n1 [Example 9] | IC50 | 0.483
CCCCc1cnc(-c2ccc(OC)cc2)c(-c2ccc(C(=O)O)cc2)c1 [Example 18] | IC50 | 0.0942
